biological target: HLA-A02.01 (human); assay: pMHC-I dissociation half-life, 125I-b2m; conditions: remark: other sources report otherwise
What Stability (T1/2 (h)) was measured for each of the following?
One number for each entry, in h.

Consider the reported Stability (T1/2 (h)) for these binders:
Binder | Measurement Type | Numeric Result
MLTDSLFLPI | Stability (T1/2 (h)) | 1
CMGGMNWRPI | Stability (T1/2 (h)) | 0.4

As a next step, examine the binder that follows.
Returns the measured Stability (T1/2 (h)) for the input binder. Input: `MNWRPILTI`
3.8
